- target: T1, human TREM2 (human, UniProt Q9NZC2 19-174, limits assumed)
- T1 construct: also called triggering receptor expressed on myeloid cells 2
- T1 sequence: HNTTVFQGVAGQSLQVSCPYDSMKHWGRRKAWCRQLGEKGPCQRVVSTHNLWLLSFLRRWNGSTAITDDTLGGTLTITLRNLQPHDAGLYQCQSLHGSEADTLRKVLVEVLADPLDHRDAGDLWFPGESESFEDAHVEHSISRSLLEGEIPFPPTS
- experiment: 1st screen, 110 nM Ab
Quick list: Binding Signal per entry.

Some binders with known Binding Signal results, for comparison:
>  <binder>
V71 (antibody, V domains shown, also called 6E7 variant V71) VH: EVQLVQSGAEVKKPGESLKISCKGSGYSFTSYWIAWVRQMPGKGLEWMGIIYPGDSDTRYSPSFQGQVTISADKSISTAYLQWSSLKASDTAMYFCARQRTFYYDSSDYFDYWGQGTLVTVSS VL: DIQMTQSPSSVSASVGDRVTITCRASQGISSWLAWYQQKPGKAPKLLIYAASSLQNGVPSRFSGSGSGTDFTLTISSLQPEDFATYFCQQADSEPRTFGQGTKLEIK

>  <Binding Signal>
0.37 fold over 6E7 parental antibody

$$$$
>  <binder>
V42 (antibody, V domains shown, also called 6E7 variant V42) VH: EVQLVQSGAEVKKPGESLKISCKGSGYSFTSAWIAWVRQMPGKGLEWMGIIYPGDSDTRYSPSFQGQVTISADKSISTAYLQWSSLKASDTAMYFCARQRTFYYDSSDYFDYWGQGTLVTVSS VL: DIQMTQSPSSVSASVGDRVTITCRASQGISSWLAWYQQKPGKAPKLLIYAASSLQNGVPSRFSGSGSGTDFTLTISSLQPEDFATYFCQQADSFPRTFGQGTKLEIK

>  <Binding Signal>
0.45 fold over 6E7 parental antibody

$$$$
>  <binder>
V83 (antibody, V domains shown, also called 6E7 variant V83) VH: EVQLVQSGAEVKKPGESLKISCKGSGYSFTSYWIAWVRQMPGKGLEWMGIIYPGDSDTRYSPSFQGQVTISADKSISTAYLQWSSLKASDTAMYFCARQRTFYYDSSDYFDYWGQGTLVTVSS VL: DIQMTQSPSSVSASVGDRVTITCRASQGISSWLAWYQQKPGKAPKLLIYAASSLQNGVPSRFSGSGSGTDFTLTISSLQPEDFATYFCQQAVSFPRTFGQGTKLEIK

>  <Binding Signal>
0.2 fold over 6E7 parental antibody

$$$$

I have this binder here, V82 (antibody, V domains shown, also called 6E7 variant V82) VH: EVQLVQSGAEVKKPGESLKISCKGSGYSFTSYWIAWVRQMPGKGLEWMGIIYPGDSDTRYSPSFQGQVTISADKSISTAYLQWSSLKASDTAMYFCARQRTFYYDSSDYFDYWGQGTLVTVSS VL: DIQMTQSPSSVSASVGDRVTITCRASQGISSWLAWYQQKPGKAPKLLIYAGSSLQNGVPSRFSGSGSGTDFTLTISSLQPEDFATYFCQQADSFPRTFGQGTKLEIK , and I need its recorded Binding Signal.
0.3 fold over 6E7 parental antibody

For the binder V35 (antibody, V domains shown, also called 6E7 variant V35) VH: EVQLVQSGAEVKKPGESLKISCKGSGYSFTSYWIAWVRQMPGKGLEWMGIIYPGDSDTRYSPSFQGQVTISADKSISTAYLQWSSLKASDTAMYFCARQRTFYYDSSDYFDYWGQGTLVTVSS VL: DIQMTQSPSSVSASVGDRVTITCRASQGISSWLAWYQQKPGKAPKLLIYAASSLQNGVPSRFSGSGSGTDFTLTISSLQPEDFATYFCQQAYSFPRTFGQGTKLEIK , what Binding Signal is on record?
0.21 fold over 6E7 parental antibody

Look at this binder and give its reported Binding Signal. V43 (antibody, V domains shown, also called 6E7 variant V43) VH: EVQLVQSGAEVKKPGESLKISCKGSGYSFTSYWIAWVRQMPGKGLEWMGIIYPGDSGTRYSPSFQGQVTISADKSISTAYLQWSSLKASDTAMYFCARQRTFYYDSSDYFDYWGQGTLVTVSS VL: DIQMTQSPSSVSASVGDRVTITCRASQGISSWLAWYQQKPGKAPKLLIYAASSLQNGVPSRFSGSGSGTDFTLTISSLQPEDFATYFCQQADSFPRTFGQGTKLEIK
0.2 fold over 6E7 parental antibody

# lookup: Binding Signal of V23 (antibody, V domains shown, also called 6E7 variant V23; LV-202/HV-15) VH: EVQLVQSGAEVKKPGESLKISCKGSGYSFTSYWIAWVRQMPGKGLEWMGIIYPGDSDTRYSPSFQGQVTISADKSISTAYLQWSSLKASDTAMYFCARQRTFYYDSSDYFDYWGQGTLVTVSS VL: DIQMTQSPSSVSASVGDRVTITCRASQGISSWLAWYQQKPGKAPKLLIYAASSLQNGVPSRFSGSGSGTDFTLTISSLQPEDFATYFCQQADSFPLTFGQGTKLEIK
0.4 fold over 6E7 parental antibody

Please report the recorded Binding Signal for V10 (antibody, V domains shown, also called 6E7 variant V10; LV-201/HV-15) VH: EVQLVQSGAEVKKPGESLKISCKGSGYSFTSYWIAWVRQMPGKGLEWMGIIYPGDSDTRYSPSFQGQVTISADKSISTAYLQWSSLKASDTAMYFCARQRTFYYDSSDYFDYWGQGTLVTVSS VL: DIQMTQSPSSVSASVGDRVTITCRASQGISSWLAWYQQKPGKAPKLLIYSASSLQNGVPSRFSGSGSGTDFTLTISSLQPEDFATYFCQQADSFPRTFGQGTKLEIK .
0.76 fold over 6E7 parental antibody

Query (binder): V79 (antibody, V domains shown, also called 6E7 variant V79) VH: EVQLVQSGAEVKKPGESLKISCKGSGYSFTSYWIAWVRQMPGKGLEWMGIIYPGDSDTNYSPSFQGQVTISADKSISTAYLQWSSLKASDTAMYFCARQRTFYYDSSDYFDYWGQGTLVTVSS VL: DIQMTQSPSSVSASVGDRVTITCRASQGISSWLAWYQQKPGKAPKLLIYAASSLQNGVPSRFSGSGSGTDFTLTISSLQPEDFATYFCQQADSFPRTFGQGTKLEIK ; field requested: Binding Signal
0.7 fold over 6E7 parental antibody

Field request: Binding Signal | item: V68 (antibody, V domains shown, also called 6E7 variant V68) VH: EVQLVQSGAEVKKPGESLKISCKGSGYSFTSYWIAWVRQMPGKGLEWMGIIYPGDSDTRYSPSFQGQVTISADKSISTAYLQWSSLKASDTAMYFCARQRTFRYDSSDYFDYWGQGTLVTVSS VL: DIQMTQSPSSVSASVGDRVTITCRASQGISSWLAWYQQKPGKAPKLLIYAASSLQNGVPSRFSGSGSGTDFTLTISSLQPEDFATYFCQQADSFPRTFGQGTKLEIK
0.44 fold over 6E7 parental antibody

These data points were gathered from patent US20250326839A1.
